Test: Selectivity index, ratio of CC50 for mouse L929 cells to IC50 for Trypanosoma cruzi Tulahuen expressing Escherichia coli beta-galactosidase infected in L929 cells
Type: toxicity
Details: read-out: Ratio CC50/IC50
Overview of recorded selectivity ratio for various compounds
A bare number is all that is needed in reply.

{"Chemical String": "Cc1ccc(S(=O)(=O)N2CCN(c3ccc(OCCN(C)C)cc3)CC2)cc1", "selectivity ratio": 136}
{"Chemical String": "O=C(c1ccc(N2CCNCC2)nc1)N1CCN(S(=O)(=O)c2ccc(Cl)cc2)CC1", "selectivity ratio": 2}
{"Chemical String": "COc1ccc(Cl)cc1S(=O)(=O)N1CCN(c2ccc(OCCN(C)C)cc2)CC1", "selectivity ratio": 12}

Would you kindly share the measured selectivity ratio for CN(C)CCOc1ccc(N2CCN(S(=O)(=O)c3ccc([N+](=O)[O-])cc3)CC2)cc1 ?
178

Would you kindly share the measured selectivity ratio for COc1ccc(S(=O)(=O)N2CCN(c3ccc(OCCN(C)C)cc3)CC2)cc1 ?
50

Would you kindly share the measured selectivity ratio for CN(C)CCOc1ccc(C(=O)N2CCN(S(=O)(=O)c3ccc(Cl)cc3)CC2)cc1 ?
25

Would you kindly share the measured selectivity ratio for CN(C)CCNc1ccc(C(=O)N2CCN(S(=O)(=O)c3ccc(Cl)cc3)CC2)cn1 ?
6

Would you kindly share the measured selectivity ratio for CN(C)CCOc1ccc(N2CCN(S(=O)(=O)c3ccccc3Br)CC2)cc1 ?
3

----------
Experiment: Cytotoxicity against human THP-1 cells incubated for 72 hrs by Alamar blue assay
Type: toxicity, cell-based
Reported Metric: CC50 at 72 h

The examples below pair each entry with its known result.
{"Chemical String": "Nc1ccc(C(=O)N2CCN(S(=O)(=O)c3ccc(Cl)cc3)CC2)cc1", "CC50 at 72 h": "> 1000 µM"}
{"Chemical String": "O=C(c1ccc(-n2cnnn2)cc1)N1CCN(S(=O)(=O)c2ccc(Cl)cc2)CC1", "CC50 at 72 h": "> 1000 µM"}
{"Chemical String": "CC(=O)Nc1ccc(S(=O)(=O)N2CCN(c3ccc(OCCN(C)C)cc3)CC2)cc1", "CC50 at 72 h": "> 1000 µM"}

Would you kindly share the measured CC50 at 72 h for CN(C)CCOc1ccc(C(=O)N2CCN(S(=O)(=O)c3ccc(Cl)cc3)CC2)cc1 ?
> 1000 µM

Would you kindly share the measured CC50 at 72 h for CN(C)CCOc1ccc(N2CCN(S(=O)(=O)c3ccc(N)cc3)CC2)cc1 ?
> 1000 µM

Would you kindly share the measured CC50 at 72 h for CN(C)CCOc1ccccc1C(=O)N1CCN(S(=O)(=O)c2ccc(Cl)cc2)CC1 ?
> 500 µM

----------
Overview of recorded selectivity ratio for various compounds
Test: Selectivity index, ratio of CC50 for human THP-1 cells to IC50 for Leishmania infantum MHOM/BR/1974/PP75 expressing red fluorescence protein infected in THP-1 cells
Type: toxicity, cell-based
Settings: read-out: Ratio CC50/IC50

The examples below pair each entry with its known result.
{"Chemical String": "N#CCOc1ccc(C(=O)N2CCN(S(=O)(=O)c3ccc(Cl)cc3)CC2)cc1", "Data Value": 453}
{"Chemical String": "CN(C)CCOc1ccc(C(=O)N2CCN(S(=O)(=O)c3ccc(Cl)cc3)CC2)cc1", "Data Value": "> 2460"}
{"Chemical String": "O=C(c1ccc(N2CCNCC2)nc1)N1CCN(S(=O)(=O)c2ccc(Cl)cc2)CC1", "Data Value": "< 3"}

Would you kindly share the measured selectivity ratio for CN(C)CCOc1ccc(N2CCN(C(=O)c3ccc(Cl)cc3)CC2)cc1 ?
> 27

Would you kindly share the measured selectivity ratio for O=C(c1ccc([N+](=O)[O-])cc1)N1CCN(S(=O)(=O)c2ccc(Cl)cc2)CC1 ?
> 20

Would you kindly share the measured selectivity ratio for COc1ccc(S(=O)(=O)N2CCN(c3ccc(OCCN(C)C)cc3)CC2)cc1 ?
16

Would you kindly share the measured selectivity ratio for CN(C)CCOc1ccccc1C(=O)N1CCN(S(=O)(=O)c2ccc(Cl)cc2)CC1 ?
> 49
